target: KRAS G12C (Homo sapiens (Human), UniProt P01116, C118A/G12C); test: 2 h coupled exchange assay; format: biochemical; conditions: Avg 2 h Coupled exchange IC50, 2 h compound pre-incubation
Sequence (P01116 other isoform, or with tags, fused parts or gaps G12C/C118A): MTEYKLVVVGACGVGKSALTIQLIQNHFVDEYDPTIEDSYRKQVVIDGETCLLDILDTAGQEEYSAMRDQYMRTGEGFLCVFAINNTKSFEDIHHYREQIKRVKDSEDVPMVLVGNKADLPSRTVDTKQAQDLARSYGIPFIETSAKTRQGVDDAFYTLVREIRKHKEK
pIC50: −log10 of the molar value.
assayEndpoint: pIC50

1. C=CC(=O)N1CC2(CCN(c3nc4cc(-c5ccnn5C)ccc4c(-c4cc(O)cc(F)c4F)c3C)C2)C1 [Example 16-13]    6.43
2. C=CC(=O)N1CC2(CCN(c3nc4c(c(-c5cccc6cc(O)ccc56)c3C)COC(C)(C)C4)C2)C1 (single isomer, unassigned) [Example 14-45]    5.13
3. C=CC(=O)N1CC2(CCN(c3nc4cc(-c5scnc5CO)ccc4c(-c4ccccc4F)c3C#N)C2)C1 [Example 20-18]    7.02
4. C=CC(=O)N1CC2(CCN(c3nc4c(c(-c5ccccc5F)c3C#N)CCN(c3scnc3C)C4)C2)C1 [Example 21-1]    7.39
5. C=CC(=O)N1CC2(CCN(c3nc4c(c(-c5c(C)ccc6[nH]ncc56)c3C)CCN(C3CC3)C4)C2)C1 [Example 18-16]    6.45
6. C=CC(=O)N1CC2(CCN(c3nc4cc(-c5scnc5C)cnc4c(-c4ccccc4Cl)c3C#N)C2)C1 (single isomer, unassigned) [Example 20-8]    6.86
7. C=CC(=O)N1CC2(CCN(c3nc4c(c(-c5ccc(F)cc5Cl)c3C#N)CO[C@@H](c3scnc3C)C4)C2)C1 [Example 23-27]    7.01
8. C=CC(=O)N1CC2(CCN(c3nc4c(c(-c5cc(OC)ccc5Cl)c3C#N)CCC(c3scnc3C)=C4)C2)C1 [Example 23-31]    6.77
9. C=CC(=O)N1CC2(CCN(c3nc4cc(-c5nccn5C)ccc4c(-c4ccc(F)cc4F)c3C#N)C2)C1 [Example 20-14]    6.61
10. C=CC(=O)N1CC2(CCN(c3nc4cc(-c5c(C)nn(C)c5C)ccc4c(-c4ccccc4Cl)c3C#N)C2)C1 [Example 14-46]    6.95
11. C=CC(=O)N1CC2(CCN(c3nc4cc(-c5scnc5C)ccc4c(-c4c(O)cccc4F)c3C#N)C2)C1 (single isomer, unassigned) [Example 19-15]    5.53
12. C=CC(=O)N1CC2(CCN(c3nc4c(c(-c5ccc(F)cc5Cl)c3C#N)CCC(c3scnc3C)=C4)C2)C1 (atropisomer, axis not shown; (M)) [Example 23-32]    6.55
13. C=CC(=O)N1CC2(CCN(c3nc4c(c(-c5cccc6cc[nH]c56)c3C#N)C[C@H]3C[C@@H]4C3(C)C)C2)C1 [Example 14-22]    6.22

* * *

biological target: KRAS G12C (Homo sapiens (Human), UniProt P01116, C118A/G12C); assay: 2 h coupled exchange assay; assay type: biochemical; details: Avg 2 h Coupled exchange IC50, 2 h compound pre-incubation
pIC50: −log10 of the molar value.
Use criterion met when the recorded pIC50 is no lower than 7; use criterion not met when it is lower.

1. C=CC(=O)N1CC2(CCN(c3nc4c(c(-c5ncccc5C)c3C#N)CCC(c3scnc3C)=C4)C2)C1 (single isomer, unassigned) [Example 23-25]    criterion not met
2. C=CC(=O)N1CC2(CCN(c3nc4cc(-c5ccnn5C)ccc4c(-c4cc(O)ccc4Cl)c3C)C2)C1 [Example 16-9]    criterion met

* * *

Target: KRAS G12C (Homo sapiens (Human), UniProt P01116, C118A/G12C)
Assay: 2 h coupled exchange assay
Format: biochemical
Details: Avg 2 h Coupled exchange IC50, 2 h compound pre-incubation, SOS-mediated nucleotide exchange
Procedure: The term “2 h coupled exchange assay” or “20 h coupled exchange assay” as used herein refers to the assay described in the Section entitled “BIOLOGICAL EVALUATION.”
pIC50: −log10 of the molar value.
Use t when the recorded pIC50 is no lower than 7; use f when it is lower.

1. C=CC(=O)N1CC2(CCN(c3nc4c(c(-c5c(C)ccc6[nH]ncc56)c3C#N)CCCCC4)C2)C1 [Example 2-10]    t
2. C=CC(=O)N1CC2(CCN(c3nc4c(c(-c5ccccc5F)c3C#N)CCCC4)C2)C1 [Example 2-7]    f
3. C=CC(=O)N1CC2(CCN(c3nc4c(c(-c5c(C)cc(F)c6[nH]ncc56)c3C#N)C[C@H]3C[C@@H]4C3(C)C)C2)C1 [Example 12-11]    t
4. C=CC(=O)N1CC2(CCN(c3nc4c(c(-c5c(C(F)(F)F)ccc6[nH]ncc56)c3C#N)C[C@H]3C[C@@H]4C3(C)C)C2)C1 [Example 2-31]    t
5. C=CC(=O)N1CC2(CCN(c3cc4c(c(-c5cc(O)cc6ccccc56)c3C#N)OCCC4)C2)C1 [Example 2-52]    t
6. C=CC(=O)N1CC2(CCN(c3nc4ccccc4c(-c4c(C)ccc5[nH]nc(Cl)c45)c3C#N)C2)C1 [Example 14-3]    f
7. C=CC(=O)N1CC2(CCN(c3nc4c(c(-c5cc(Cl)cc6ccn(C)c56)c3C#N)COC(C)(C)C4)C2)C1 (single isomer, unassigned) [Example 12-10]    f
8. C=CC(=O)N1CC2(CCN(c3cc4c(c(-c5c(C)ccc6cnn(C)c56)c3C#N)COCC4)C2)C1 [Example 2-96]    f
9. C=CC(=O)N1CC2(CCN(c3nc4c(c(-c5c(C)ccc6[nH]ncc56)c3C#N)CC(C)(C)C4)[C@H]2C)C1 (atropisomer, axis not shown; (P)) [Example 13-53]    f
10. C=CC(=O)N1CC2(CCN(c3nc4ccccc4c(-c4c(C)ccc5[nH]ncc45)c3C)C2)C1 (single isomer, unassigned) [Example 2-56]    f
11. C=CC(=O)N1CC2(CCN(c3nc4c(c(-c5c(C)ccc6[nH]ncc56)c3C(=O)OC)CCC(C)(C)C4)C2)C1 [Example 13-44]    f
12. C=CC(=O)N1CC2(C1)CN(c1nc3c(c(-c4c(C)ccc5[nH]ncc45)c1C#N)CCC(C)C3)CC2(F)F (centres unmarked) [Example 2-5]    t
13. C=CC(=O)N1CC2(CCN(c3nc4c(c(-c5scnc5C)c3C#N)CCC(c3ccnn3C)C4)C2)C1 (centres unmarked) [Example 13-27]    f
14. C=CC(=O)N1CC2(CCN(c3cc4c(c(-c5cc(O)cc6ccccc56)c3C#N)CCC(C)(C)C4)C2)C1 [Example 2-98]    t
15. C=CC(=O)N1CC2(CCN(c3nc4c(c(-c5c(C)ccc6ccccc56)n3)CCCC4)C2)C1 [Example 1-12]    f
16. C=CC(=O)N1CC2(CCN(c3nc4c(c(-c5cc(Cl)cc6cnn(C)c56)c3C)COC(C)(C)C4)C2)C1 [Example 2-32]    f
17. Cc1ccc2[nH]ncc2c1-c1c(C#N)c(N2CCC3(CN(C(=O)/C=C/CN(C)C)C3)C2)nc2c(F)cccc12 [Example 1-46]    f
18. C=CC(=O)N1CC2(CCN(c3nc4c(c(-c5cc(O)cc6ccccc56)c3C#N)COC(C)(C)C4)C2)C1 (single isomer, unassigned) [Example 13-42]    f
19. C=CC(=O)N1CC2(CCN(c3nc4c(c(-c5cc(O)ccc5C)c3C#N)COC(C)(C)C4)C2)C1 (single isomer, unassigned) [Example 13-127]    f
20. C=CC(=O)N1CC2(CCN(c3nc4c(c(-c5c(C)ccc6[nH]ncc56)c3C#N)C[C@H]3C[C@@H]4C3(C)C)C2C)C1 (some centres unmarked) [Example 13-94]    t
21. C=CC(=O)N1CC2(CCN(c3nc4c(c(-c5cc(F)c(O)c6ccccc56)c3C#N)COC(C)(C)C4)C2)C1 [Example 12-28]    f

* * *

target: KRAS G12C (Homo sapiens (Human), UniProt P01116, C118A/G12C); test: 2 h coupled exchange assay; format: biochemical; conditions: Avg 2 h Coupled exchange IC50, 2 h compound pre-incubation, SOS-mediated nucleotide exchange
pIC50: −log10 of the molar value.
assayEndpoint: pIC50

1. C=CC(=O)N1CC2(CCN(c3nc4c(c(-c5cc(O)cc(Cl)c5C)c3C)COC(C)(C)C4)C2)C1 [Example 12-2]    7.39
2. C=CC(=O)N1CC2(CCN(c3nc4c(c(-c5c(C)ccc6[nH]ncc56)c3C#N)COC3(CCOCC3)C4)C2)C1    7.12
3. C=CC(=O)N1CC2(CCN(c3nc4c(c(-c5c(C)c(C)cc6cnn(C)c56)c3C#N)COC(C)(C)C4)C2)C1 (single isomer, unassigned) [Example 13-92]    7.89
4. C=CC(=O)N1CC2(CCN(c3nc4c(c(-c5c(C)ccc6cn[nH]c56)c3C)CCC(C)(C)C4)C2)C1 (single isomer, unassigned) [Example 2-25]    5.16
5. C=CC(=O)N1CC2(CCN(c3nc4c(c(-c5c(C)ccc6cnn(C)c56)c3Cl)COC(C)(C)C4)C2)C1 (single isomer, unassigned) [Example 2-88]    5.33
6. C=CC(=O)N1CC2(CCN(c3nc4c(c(-c5cccc6cccc(C)c56)n3)CCC(C)(C)C4)C2)C1    5.46
7. C=CC(=O)N1CC2(CCN(c3nc4c(c(-c5c(C)ccc6cnn(C)c56)c3C#N)CC(C)(C)C4)C2)C1 [Example 13-16]    7.09
8. C=CC(=O)N1CC2(CCN(c3nc4c(c(-c5c(C)ccc6[nH]ncc56)c3C#N)COC3(CCOC3)C4)C2)C1 (stereo not shown)    7.02
9. C=CC(=O)N1CC2(CCN(c3nc4c(c(-c5cc(O)cc6ccccc56)c3C#N)CC(C)(C)C4)C2)C1 (single isomer, unassigned) [Example 13-69]    7.57
10. C=CC(=O)N1CC2(CCN(c3nc4c(F)cccc4c(-c4c(C)ccc5[nH]ncc45)c3C#N)C2CF)C1 (stereo not shown)    6.91
11. C=CC(=O)N1CC2(CCN(c3nc4ccccc4c(-c4c(C)ccc5[nH]ncc45)c3C)C2)C1 (single isomer, unassigned) [Example 2-55]    6.38
12. C=CC(=O)N1CC2(CCN(c3nc4c(c(-c5c(C)ccc6[nH]ncc56)c3C#N)COC(C(F)(F)F)C4)C2)C1 (stereo not shown)    6.74
13. C=CC(=O)N1CC2(CCN(c3nc4c(c(-c5c(C)ccc6[nH]ncc56)c3Cl)COC(C)(C)C4)C2)C1 [Example 2-83]    7.48
14. C=CC(=O)N1CC2(CCN(c3nc4c(c(-c5cc(O)ccc5C)c3C#N)C[C@H]3C[C@@H]4C3(C)C)C2)C1 (single isomer, unassigned) [Example 2-69]    7.82
15. C=CC(=O)N1CC2(CCN(c3cc4c(c(-c5c(C)c(Cl)cc6cnn(C)c56)c3C#N)OCCC4)C2)C1    7.74
16. C=CC(=O)N1CC2(CCN(c3nc4c(c(-c5c(C)ccc6cnn(C)c56)c3C#N)CO[C@@H](C3CC3)C4)C2)C1 (single isomer, unassigned) [Example 13-122]    6.52
17. C=CC(=O)N1CC2(CCN(c3nc4c(c(-c5cc(O)cc(F)c5Cl)c3C#N)C[C@H]3C[C@@H]4C3(C)C)C2)C1    7.70
18. C=CC(=O)N1CC2(CCN(c3nc4c(c(-c5c(C)ccc6cnn(C)c56)c3C#N)C[C@H]3C[C@@H]4C3(C)C)C2)C1 (single isomer, unassigned) [Example 13-105]    4.83
19. C=CC(=O)N1CC2(CCN(c3nc4c(c(-c5cc(O)ccc5F)c3C#N)CCCC4)C2)C1    6.39
20. C=CC(=O)N1CC2(CCN(c3nc4c(c(-c5c(C)ccc6[nH]ncc56)c3C(F)F)COC(C)(C)C4)C2)C1    6.83
21. C=CC(=O)N1CC2(CCN(c3nc4c(c(-c5cc(O)cc6ccccc56)c3C#N)CC(C)(C)C4)C2)C1 [Example 13-65]    7.13
22. C=CC(=O)N1CC2(CCN(c3nc4c(c(-c5c(C)cccc5O)c3C#N)C[C@H]3C[C@@H]4C3)C2)C1 (single isomer, unassigned) [Example 13-40]    4.47
23. C=CC(=O)N1CC2(CCN(c3nc4c(c(-c5ncc(Cl)c6ccccc56)c3C#N)COC(C)(C)C4)C2)C1    6.36
24. C=CC(=O)N1CC2(CCN(c3nc4c(c(-c5cccc6cc(O)ccc56)n3)CCCC4)C2)C1    6.36
25. C=CC(=O)N1CC2(CCN(c3nc4c(c(-c5cc(O)ccc5C)c3C#N)[C@@H]3CC[C@H]4C3)C2)C1 (single isomer, unassigned) [Example 14-11]    7.42

Where do the numbers come from? From patent US20240059703A1.
